Attribution: paper PMC4821188

# experimental_target: Recombinant human furin (Homo sapiens, UniProt P09958)
# Sequence (P09958 108-715 limits assumed): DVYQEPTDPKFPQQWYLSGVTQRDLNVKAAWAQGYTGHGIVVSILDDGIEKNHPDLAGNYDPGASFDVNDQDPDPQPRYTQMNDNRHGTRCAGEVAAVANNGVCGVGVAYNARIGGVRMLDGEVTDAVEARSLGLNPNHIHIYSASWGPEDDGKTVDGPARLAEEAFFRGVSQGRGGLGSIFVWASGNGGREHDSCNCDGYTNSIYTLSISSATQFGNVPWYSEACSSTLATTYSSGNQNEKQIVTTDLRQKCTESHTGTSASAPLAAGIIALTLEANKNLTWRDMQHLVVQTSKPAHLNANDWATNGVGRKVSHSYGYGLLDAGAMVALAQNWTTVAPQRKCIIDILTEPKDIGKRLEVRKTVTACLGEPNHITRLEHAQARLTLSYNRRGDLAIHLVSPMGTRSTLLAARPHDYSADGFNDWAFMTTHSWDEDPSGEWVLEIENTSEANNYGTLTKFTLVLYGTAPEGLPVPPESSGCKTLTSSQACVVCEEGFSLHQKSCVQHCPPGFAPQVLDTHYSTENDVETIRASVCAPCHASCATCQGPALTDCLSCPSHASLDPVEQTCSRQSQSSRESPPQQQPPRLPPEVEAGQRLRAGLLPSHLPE
# Type: biochemical
# condition_summary: pH 7
*: point of attachment. EDDnp = O=[N+]([O-])c1ccc(NCCN*)c([N+](=O)[O-])c1
endpoint_name: kcat/Km

Some substances with recorded kcat/Km:
QSRRRR↓QTPP [compound 41] :: 1547 (31067) (mM.s)^−1
VRRRRR↓YALS [compound 43] :: 193 mM/s
KIRRRR↓DVVD [compound 26] :: 53448 (6000) (mM.s)^−1
SRRKRR↓SAST [compound 22] :: 76232 (1992) (mM.s)^−1
RRRKKR↓SLSG [compound 47] :: 18833 (1333) (mM.s)^−1

Now for the substance whose kcat/Km we want.
Name the recorded kcat/Km for Abz-SRRHKR↓FAGV-Q-EDDnp (Abz-SRRHKRFAGVQ-EDDnp) [peptide 32] . 33857 (559) (mM.s)^−1

###

# experimental_target: Recombinant human furin (Homo sapiens, UniProt P09958)
# Assay type: biochemical
*: point of attachment. EDDnp = O=[N+]([O-])c1ccc(NCCN*)c([N+](=O)[O-])c1
We begin with a simple list: items and their reported R: relative kcat/Km values in presence vs. absence of MgCl2.
The response must contain the number and no unit.

QIRAKR↓ELSK [compound 2] :: 6.9
LRRRRR↓DAGN [compound 25] :: 9.9
SRRKRR↓SAST [compound 22] :: 38
HHRQRR↓SVSI [compound 37] :: 0.1
THRTRR↓STSD [compound 24] :: 11
KIRRRR↓DVVD [compound 26] :: 8.9
SRRKRR↓DVTP [compound 6] :: 3.2
LKRRRR↓DTQQ [compound 30] :: 0.6
VQREKR↓AVGI [compound 18] :: 3.2
HKREKR↓QAKH [compound 39] :: 0.1

Any idea what R: relative kcat/Km values in presence vs. absence of MgCl2 came out for HRREKR↓SVAL [compound 16] on Recombinant human furin (Homo sapiens, UniProt P09958)? 0.7

What about GQRKKR↓ALDT [compound 40] ? 0.06

Lookup Abz-SRRHKR↓FAGV-Q-EDDnp (Abz-SRRHKRFAGVQ-EDDnp) [peptide 32] 60

###

# experimental_target: Recombinant human furin (Homo sapiens)
# Type: biochemical
# condition_summary: pH 7
*: point of attachment. EDDnp = O=[N+]([O-])c1ccc(NCCN*)c([N+](=O)[O-])c1
List of kcat values.

Item under review: NLRRRR↓DLVD [compound 28] . Reported kcat? 3.5 (2.0) s^−1

Further, for Abz-RRRKKR↓GLFG-Q-EDDnp [compound 31] ? 5.0 s⁻¹

Now try KIRRRR↓DVVD [compound 26] . 3.1 (0.60) s^−1

Another: SRRKRR↓SAST [compound 22] 11.1 (10.0) s^−1

And then MMRHRR↓ELQR [compound 7] , what is it? 10.3 (16.2) s^−1

Lookup Abz-SRRHKR↓FAGV-Q-EDDnp (Abz-SRRHKRFAGVQ-EDDnp) [peptide 32] 2.4 (0.21) s^−1

Try TRRFRR↓SITE [compound 34] next. 19.8 (16.4) s^−1

Lookup RRRAKR↓SPKH [compound 35] 5.3 (8.7) s^−1

Next substance up: HKREKR↓QAKH [compound 39] 6.3 (6.9) s^−1

Same for SRRSRR↓SLTV [compound 12] 6.2 (4.3) s^−1

###

# experimental_target: Recombinant human furin (Homo sapiens)
# Assay type: biochemical
# condition_summary: pH 7
Listing: kcat/Km of selected substances

Examples with their reported kcat/Km follow.
VVRVRR↓ELLP [compound 5] :: 13071 (3466) (mM.s)^−1
RRRKKR↓SLFG [compound 46] :: 33043 (606) (mM.s)^−1
HRRDKR↓SVAL [compound 17] :: 23091 (36615) (mM.s)^−1
LRRRRR↓DAGN [compound 25] :: 3455 (348) (mM.s)^−1

Moving on to the next substance.
# query: kcat/Km of entry LTRQRR↓SLLP [compound 8] 3510 (2708) (mM.s)^−1

###

# experimental_target: Recombinant human furin (Homo sapiens)
# Format: biochemical
# condition_summary: pH 7
endpoint_name: kcat

The examples below pair each entry with its known result.
THRTRR↓STSD [compound 24] :: 8.1 (0.44) s^−1
RRRDKR↓SVAL [compound 15] :: 12.2 (14.6) s^−1
Abz-RERRRKKR↓GLFG-Q-EDDnp [peptide 48] :: 12.3(2.6) s^−1
LTRQRR↓SLLP [compound 8] :: 3.3 (1.8) s^−1
SIRHKR↓EPSV [compound 20] :: 1.6 (2.1) s^−1

Entry under review: HRRDKR↓SVAL [compound 17] . Reported kcat? 12.7 (9.5) s^−1

Now consider SKRSRR↓SVSV [compound 13] . 18.3 (10.5) s^−1

Can you check RKRRKR↓ELET [compound 27] next? 4.3 (0.23) s^−1

Same again, this time with KKRKRR↓FLGF [compound 33] 1.1 (0.64) s^−1

Proceed to VQREKR↓AVGI [compound 18] 2.7 (1.2) s^−1

Thanks! And RNRQKR↓FVLS [compound 42] ? 0.20 s⁻¹

Could you do the same for HRREKR↓SVAL [compound 16] , please? 7.6 (12.2) s^−1

Another substance to check: HHRQRR↓SVSI [compound 37] 28.9 (39.5) s^−1

Another substance to look at: RRRKKR↓SLSG [compound 47] 4.5(0.92) s^−1
